targetSystem: MNK1 (Homo sapiens, UniProt Q9BUB5)
Sequence (Q9BUB5 whole entry): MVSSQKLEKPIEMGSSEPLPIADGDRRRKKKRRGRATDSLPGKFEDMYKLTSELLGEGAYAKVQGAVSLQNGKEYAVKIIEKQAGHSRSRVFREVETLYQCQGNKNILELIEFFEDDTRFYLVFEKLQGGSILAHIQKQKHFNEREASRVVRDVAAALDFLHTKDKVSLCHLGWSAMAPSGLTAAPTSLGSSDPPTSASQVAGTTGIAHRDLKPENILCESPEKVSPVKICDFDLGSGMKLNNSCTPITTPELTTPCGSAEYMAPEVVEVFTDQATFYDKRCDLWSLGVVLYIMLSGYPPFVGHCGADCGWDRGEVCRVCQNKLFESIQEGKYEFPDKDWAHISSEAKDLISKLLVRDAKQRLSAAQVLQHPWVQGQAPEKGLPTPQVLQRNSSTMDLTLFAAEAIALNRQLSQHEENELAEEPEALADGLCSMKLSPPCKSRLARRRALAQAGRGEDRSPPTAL
testDetails: MNK1 kinase inhibition assay (LANCE Ultra kinase activity assay, PerkinElmer)
Format: biochemical
conditionParameters: inhibition rate at 1000 nM compound; 450 μM ATP, 60 min, 25° C.; read-out: Inhibitory activity(1 μM) MNK1
Overview of recorded inhibition at 1 µM for various molecules

> print(dat)
                                inputsmiles     result
1  CN1CCN(C(=O)c2ccc(-c3cn4c(-c5ccc(F)cc5)csc4n3)cc2)CC1  25 to 50%
2  N#Cc1ccc(-c2cnc3sc(-c4ccc(C(=O)N5CCOCC5)cc4)nn23)cc1      > 75%
3  CN(C)C1CCN(C(=O)c2ccc(-c3cn4c(-c5ccc(Cl)cc5)csc4n3)cc2)CC1  25 to 50%
4  O=C(c1ccc(-c2nn3c(-c4ccc(O)cc4)cnc3s2)cc1)N1CCOCC1      > 75%

Given `COC(=O)c1ccc(-c2cnc3sc(-c4ccc(C(=O)N5CCOCC5)cc4)nn23)cc1` , state its recorded inhibition at 1 µM. > 75%
